# target: Dihydroorotate dehydrogenase (quinone), mitochondrial (Plasmodium falciparum (isolate 3D7)) (UniProt Q08210)
# Sequence (Q08210 whole entry, looked up): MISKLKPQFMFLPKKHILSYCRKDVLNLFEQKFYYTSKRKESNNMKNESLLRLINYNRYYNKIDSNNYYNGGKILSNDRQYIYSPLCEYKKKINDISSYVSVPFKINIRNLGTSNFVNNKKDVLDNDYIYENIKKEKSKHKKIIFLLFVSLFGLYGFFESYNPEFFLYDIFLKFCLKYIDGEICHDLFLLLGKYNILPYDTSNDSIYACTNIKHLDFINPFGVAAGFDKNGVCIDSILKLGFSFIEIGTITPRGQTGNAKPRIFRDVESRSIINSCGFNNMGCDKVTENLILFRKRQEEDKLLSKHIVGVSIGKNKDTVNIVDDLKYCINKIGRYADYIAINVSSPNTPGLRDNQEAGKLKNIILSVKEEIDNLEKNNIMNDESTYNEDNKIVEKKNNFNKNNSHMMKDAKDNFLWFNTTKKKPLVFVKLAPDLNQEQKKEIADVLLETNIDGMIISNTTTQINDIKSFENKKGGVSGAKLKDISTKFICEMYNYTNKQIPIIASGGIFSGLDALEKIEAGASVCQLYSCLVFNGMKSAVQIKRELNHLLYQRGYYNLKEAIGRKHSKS
# assaySummary: PfDHODH enzyme inhibitors, primary screen, biochemical, C-terminal His tag, absorbance 600 nm (AID 1175);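 further: recombinant parasite enzyme with a five histidine tag at its C terminus; test concentration not given here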
# statedConditions: DCIP absorbance 600 nm, higher = more signal, called active from +8 up or from −8 down
Active and inactive are the calls of the source.
assayEndpoint: composite z-score

Write down composite z-score measured for item `CN(C)C(=O)[C@]1(CCC(=O)OC(C)(C)C)N=C(c2ccc(OCCCO)cc2)O[C@@H]1c1ccccc1N=[N+]=[N-]`
0.565 (inactive)

Give recorded composite z-score. `COCCOC(=O)N1C(=O)[C@@]2(c3ccccc31)[C@H](C(=O)NC[C@H](O)c1ccccc1)[C@H]1C(=O)O[C@H](c3ccccc3)[C@H](c3ccccc3)N1[C@@H]2c1ccc(OCCO)cc1`
-0.0923 (inactive)

Output composite z-score of `COc1cc2c(cc1OC)CN(C(=O)[C@@H]1[C@H]3C(=O)O[C@H](c4ccccc4)[C@H](c4ccccc4)N3[C@H](c3ccccc3OCCO)[C@@]13C(=O)Nc1ccc(C#CCNC(N)=O)cc13)CC2`
-0.839 (inactive)

Answer with the recorded composite z-score for the compound listed here: `[N-]=[N+]=NCc1ccccc1[C@@H]1OC(c2ccc(OCCCO)cc2)=N[C@]1(Cc1ccccc1)C(=O)N1CCCCC1`
0.678 (inactive)

Could you please provide reported composite z-score for `CC(=O)NCCCC[C@@H]1NC(=O)[C@@H]2C[C@H](C(=O)NCCCCCCNC(=O)CS)[C@H](c3ccc(O)cc3)N2C1=O` ? Thanks!
-0.344 (inactive)

Answer with the recorded composite z-score for the compound listed here: CC(C)=CCCC(C)=CC(O)C1C=CC2C(=O)N(c3ccccc3)C(=O)C2N1Nc1ccccc1 (configuration not stated)
0.0928 (inactive)

Return value of composite z-score for input Cc1ccccc1C(O)C1C=CC2C(=O)N(C)C(=O)C2N1Nc1ccccc1 (configuration not stated) , no commentary.
-0.513 (inactive)

###

# target: Epidermal growth factor receptor (Homo sapiens) (UniProt P00533)
# Sequence (P00533 whole entry, looked up): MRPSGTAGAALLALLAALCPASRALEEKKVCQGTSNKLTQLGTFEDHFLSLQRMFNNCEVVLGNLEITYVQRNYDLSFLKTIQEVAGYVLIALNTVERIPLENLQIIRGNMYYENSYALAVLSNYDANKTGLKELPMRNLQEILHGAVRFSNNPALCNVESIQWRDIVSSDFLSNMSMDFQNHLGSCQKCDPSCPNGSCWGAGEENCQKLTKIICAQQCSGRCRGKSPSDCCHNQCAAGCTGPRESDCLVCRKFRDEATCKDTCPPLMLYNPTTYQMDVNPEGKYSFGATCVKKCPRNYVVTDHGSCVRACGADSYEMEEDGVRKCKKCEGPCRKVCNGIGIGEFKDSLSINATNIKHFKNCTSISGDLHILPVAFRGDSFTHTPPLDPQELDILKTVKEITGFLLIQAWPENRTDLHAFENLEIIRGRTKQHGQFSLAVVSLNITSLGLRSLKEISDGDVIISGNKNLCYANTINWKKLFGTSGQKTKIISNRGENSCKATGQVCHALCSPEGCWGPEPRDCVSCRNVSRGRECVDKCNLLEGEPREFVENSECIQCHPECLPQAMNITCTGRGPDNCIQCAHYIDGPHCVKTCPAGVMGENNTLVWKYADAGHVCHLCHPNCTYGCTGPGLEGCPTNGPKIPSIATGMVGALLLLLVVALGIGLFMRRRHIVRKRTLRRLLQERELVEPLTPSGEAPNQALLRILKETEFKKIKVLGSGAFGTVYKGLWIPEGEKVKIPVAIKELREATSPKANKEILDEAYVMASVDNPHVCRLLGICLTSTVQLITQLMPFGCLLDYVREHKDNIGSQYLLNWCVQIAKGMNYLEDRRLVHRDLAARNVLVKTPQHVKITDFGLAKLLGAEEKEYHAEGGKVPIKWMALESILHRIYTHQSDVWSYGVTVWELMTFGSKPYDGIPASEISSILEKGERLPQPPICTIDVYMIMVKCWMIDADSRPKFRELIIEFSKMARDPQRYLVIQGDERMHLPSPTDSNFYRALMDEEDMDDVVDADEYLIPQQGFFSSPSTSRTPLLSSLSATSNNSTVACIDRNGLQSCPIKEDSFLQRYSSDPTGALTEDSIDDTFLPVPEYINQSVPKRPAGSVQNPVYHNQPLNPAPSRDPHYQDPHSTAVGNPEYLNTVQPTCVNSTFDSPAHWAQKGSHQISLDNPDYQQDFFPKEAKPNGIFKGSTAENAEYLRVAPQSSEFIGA
# assaySummary: EGFR binders on small-molecule microarrays, primary screen, biochemical, small-molecule microarray, 635 nm fluorescence (AID 1104);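 further: score merges 667 nm emission intensity with spot signal to noise over triplicate slides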
# statedConditions: EGFR binding, higher = more signal
Please provide measured composite z-score for the entries that follow.

Provide measured composite z-score value, entry: `O=C1O[C@@H](c2ccccc2)[C@@H](c2ccccc2)N2[C@@H](c3ccc(OCCO)cc3)[C@]3(C(=O)Nc4ccc(C#CC5=CCCCC5)cc43)[C@@H](C(=O)O)[C@H]12`
0.257

Input O=C1C2C=CC(C(O)c3cccs3)N(Nc3ccccc3F)C2C(=O)N1c1ccccc1 (stereo not drawn) , output reported composite z-score.
0.0444

Look up and state reported composite z-score for `COCCOC(=O)N1C(=O)[C@@]2(c3cc(C#CCNC(N)=O)ccc31)[C@H](C(=O)N1CCc3cc(OC)c(OC)cc3C1)[C@H]1C(=O)O[C@H](c3ccccc3)[C@H](c3ccccc3)N1[C@@H]2c1ccc(OCCO)cc1`
0.528

Determine from records and report composite z-score for `COCCOC(=O)N1C(=O)[C@@]2(c3cc(C#CCC(C(=O)OC)C(=O)OC)ccc31)[C@H](c1ccccc1OCCO)N1[C@H](c3ccccc3)[C@H](c3ccccc3)OC(=O)[C@H]1[C@@H]2C(N)=O`
0.249

Write down composite z-score measured for item `O=C(CS)NCCCCCCNC(=O)[C@@H]1C[C@@H]2C(=O)N3CCC[C@H]3C(=O)N2[C@@H]1c1ccc(O)cc1`
-0.226

Specify reported composite z-score for the molecule shown: CC(=O)C1=CCC(c2ccccc2)N(S(=O)(=O)c2ccc(C)cc2)C1 (stereo not drawn)
0.255

Report measured composite z-score; entry is `CCCN1C(=O)[C@@]2(CCC(=O)OC(C)(C)C)N=C(c3ccc(OCCCO)cc3)O[C@H]2c2ccccc21`
0.246

Specify measured composite z-score for `COC(=O)c1c(CC[C@@H](CO)NC(=O)N[C@@H](Cc2ccccc2)Cn2cc(C3(O)CCCCC3)nn2)oc(C(C)=O)c1C(=O)OC` .
0.346

State its composite z-score for this molecule: `COCCOC(=O)N1C(=O)[C@@]2(c3cc(C#CCNC(N)=O)ccc31)[C@H](C(=O)N1CCN(c3ncccn3)CC1)[C@H]1C(=O)O[C@H](c3ccccc3)[C@H](c3ccccc3)N1[C@@H]2c1ccccc1OCCO`
0.736

Name the recorded composite z-score of the item `COCCOC(=O)N1C(=O)[C@@]2(c3ccccc31)[C@H](C(=O)NC[C@H](O)c1ccccc1)[C@H]1C(=O)O[C@H](c3ccccc3)[C@H](c3ccccc3)N1[C@@H]2c1ccc(OCCO)cc1` in your answer.
1.13

Using the record for O=C1OCCC=C[C@H]2OC34C=CCN(Cc5ccccc5)C(=O)[C@H]3N(CCCCCO)C(=O)[C@@H]4C12 (stereo partly drawn) , state its measured composite z-score.
-0.744

Tell us which composite z-score value is on record for CCOC(=O)[C@H]1C[C@H]2O[C@@]23C[C@H]1C(=O)N1CCCC1[C@@H]3O[Si](C)(C)C(C)(C)C (stereo partly drawn)
-0.694

Look up and report measured composite z-score for this entry: `COCCOC(=O)N1C(=O)[C@@]2(c3cc(C#CCC(C(=O)OC)C(=O)OC)ccc31)[C@H](C(=O)N1CCN(c3ncccn3)CC1)[C@H]1C(=O)O[C@H](c3ccccc3)[C@H](c3ccccc3)N1[C@@H]2c1ccc(OCCO)cc1`
0.275

###

# assaySummary: small-molecule microarray binders of probe aDKK1, primary screen, biochemical, biotinylated probe, 635/667 nm fluorescence (AID 1099);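 further: score merges 667nm spot fluorescence with signal to noise across triplicate slides; reference of the scale not given here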
# statedConditions: higher = more signal
Think of 0.9 as a floor: if composite z-score stands on it or above, it is 1.0; beneath it, 0.0.

Could you verify whether the entry `CC(=O)NCCCC[C@@H]1NC(=O)[C@@H]2C[C@H](C(=O)NCCCCN(C)C)[C@H](c3ccc(O)cc3)N2C1=O` shows composite z-score of no less than 0.9?
0.0

Determine whether measured composite z-score meets or exceeds 0.9 for `CCCCCCc1nc(CCCc2cc3c(c(CCCCCC)n2)[Si](C(C)C)(C(C)C)OC3)cc2c1[Si](C(C)C)(C(C)C)OC2`
0.0

For this compound, is measured composite z-score 0.9 or higher? `O=C1N(CCS(=O)(=O)c2ccccc2)Cc2ccccc2C[C@]12N=C(c1ccc(OCCCO)cc1)O[C@@H]2c1ccccc1`
0.0

Is composite z-score for CCOC(=O)C1=CCC(c2ccc(C#N)cc2)N(S(=O)(=O)c2ccc(C)cc2)C1 (stereo not drawn) at or above 0.9?
1.0

Form field: composite z-score at least 0.9? Entry: `CN(C)CCCCNC(=O)[C@H]1C[C@H]2C(=O)N[C@@H](Cc3ccccc3)C(=O)N2[C@H]1c1ccc(O)cc1`
0.0

Tell me whether composite z-score is at least 0.9 here: `C=CC[C@@]1(C(=O)N2CCOCC2)N=C(c2ccc(OCCCO)cc2)O[C@@H]1c1ccccc1N=[N+]=[N-]`
1.0

Is the recorded value of composite z-score equal to or greater than 0.9 for this compound? `C=CC(=C)C1=CCO[C@@H]1[C@H]1CCCN1S(=O)(=O)c1ccccc1[N+](=O)[O-]`
0.0

###

# assaySummary: small-molecule microarray binders of probe aEGFR, primary screen, biochemical, biotinylated probe, 635/667 nm fluorescence (AID 1097);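 further: probe is a biotinylated anti-EGFR antibody binding compounds printed on slides; score combines fluorescence near 667 nm and signal to noise of each spot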
# statedConditions: higher = more signal
assayEndpoint: composite z-score
// response body must contain only the number

Tell me composite z-score reported for O=C1OCCC=C[C@H]2OC34C=CCN(Cc5ccccc5)C(=O)[C@H]3N(CCCCCCO)C(=O)[C@@H]4C12 (stereo partly specified)
-0.309

Input `COC(=O)[C@@]1(Cc2ccc(OC)cc2)[C@H]2c3cc(C(=O)N(C)C)n(Cc4c(OC)[nH]cc(C)c4=O)c3C[C@H]2CN1C(=O)c1ccccc1` , output reported composite z-score.
0.487

Return the recorded composite z-score value; entry: `C=CCOC(=O)[C@H]1[C@@H]2C(=O)O[C@@H](c3ccccc3)[C@@H](c3ccccc3)N2[C@@H](c2ccc(OCCOC(=O)[C@@H]3C[C@@H]4C(=O)N5CCC[C@H]5C(=O)N4[C@@H]3c3ccc(O)cc3)cc2)[C@]12C(=O)Nc1ccccc12`
-0.096

# return recorded composite z-score for input `COCCOC(=O)N1C(=O)[C@@]2(c3ccccc31)[C@H](c1ccc(O)cc1)N1[C@H](c3ccccc3)[C@H](c3ccccc3)OC(=O)[C@H]1[C@@H]2C(=O)N1CCc2cc(OC)c(OC)cc2C1`
0.101

Please report the measured composite z-score for `COc1ccc(CCNC(=O)[C@@]2(Sc3ccc(C)cc3)CC(=O)N(Cc3ccccc3Cl)[C@@H]2c2ccc(CO)cc2I)cc1`
-0.185

Specify measured composite z-score for `CO[C@H]1O[C@H](CO)[C@@H](OC(=O)Nc2ccc(Oc3ccccc3)cc2)[C@H](OC(=O)Nc2ccccc2)[C@H]1OC(=O)Nc1ccccc1` .
0.13
